Molecular target: hTPC1 (Homo sapiens)
Assay: Whole-endolysosome recordings of ITPC1
Details: whole-endolysosome; n = 3 patches; read-out: IC50, inhibition of TPC1
measure name: pIC50
// returns pIC50 (minus log10 of molar concentration), number only

Query CN(C)CCCN1c2ccccc2Sc2ccc(Cl)cc21 yields pIC50 of 4.11

====

Molecular target: hTPC2 (Homo sapiens, UniProt Q8NHX9)
Construct: expressed in transfected cells; host or cells: Cos1 and HEK293
Sequence (Q8NHX9 whole entry): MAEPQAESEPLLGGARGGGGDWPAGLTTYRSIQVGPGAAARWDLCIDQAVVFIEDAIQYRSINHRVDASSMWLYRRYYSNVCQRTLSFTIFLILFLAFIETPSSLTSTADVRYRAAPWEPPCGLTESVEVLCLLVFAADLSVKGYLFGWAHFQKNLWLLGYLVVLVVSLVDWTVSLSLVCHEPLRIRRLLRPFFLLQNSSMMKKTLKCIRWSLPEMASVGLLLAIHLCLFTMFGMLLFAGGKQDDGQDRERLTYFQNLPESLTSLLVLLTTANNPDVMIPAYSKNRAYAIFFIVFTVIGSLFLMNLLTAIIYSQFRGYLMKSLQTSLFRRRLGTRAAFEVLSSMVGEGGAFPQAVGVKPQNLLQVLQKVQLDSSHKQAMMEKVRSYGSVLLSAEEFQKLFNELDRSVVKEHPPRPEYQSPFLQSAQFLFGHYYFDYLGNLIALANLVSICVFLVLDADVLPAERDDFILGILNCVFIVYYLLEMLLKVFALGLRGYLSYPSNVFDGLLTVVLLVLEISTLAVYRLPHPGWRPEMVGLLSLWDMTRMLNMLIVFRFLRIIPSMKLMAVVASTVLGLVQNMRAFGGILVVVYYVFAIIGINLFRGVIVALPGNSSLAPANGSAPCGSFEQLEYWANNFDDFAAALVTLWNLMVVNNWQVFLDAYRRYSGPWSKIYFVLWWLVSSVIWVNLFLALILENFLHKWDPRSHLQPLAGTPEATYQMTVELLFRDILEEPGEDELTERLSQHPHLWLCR
Experiment: Whole-endolysosome recordings of ITPC2
Type: biochemical
Settings: whole endolysosome recordings with 100 µM of LyNa-VAs at −120 mV
measure name: ITPC2 (pA)
Give the quantity in pA, number only.

Briefly, ITPC2 measured for CN(C)CCCN1c2ccccc2CCc2ccccc21 : 433

So for CN(C)CCCN1c2ccccc2Sc2ccc(Cl)cc21 , the logged ITPC2 turned out to be 1101

Quick note, ITPC2 for CNCCCN1c2ccccc2CCc2ccccc21 landed at 1120

====

Target: hTPC2 (Homo sapiens, UniProt Q8NHX9)
Construct: expressed in transfected cells; host or cells: Cos1 and HEK293
Experiment: Whole-endolysosome recordings of ITPC2
Format: biochemical
Set-up: unit not given here
Settings: 100uM; mean of n tests
measure name: Whole endo-lysosomal TPC2 current activated by LyNa-VAs, mean
Answer using only a numeral; do not append any unit.

// CN(C)CCCN1c2ccccc2Sc2ccc(C(F)(F)F)cc21 [LyNa-VA2.2/triflupromazine] : Whole endo-lysosomal TPC2 current activated by LyNa-VAs, mean value = 983.7

The compound c1ccc2c(c1)Nc1ccccc1S2 [Phenothiazine] showed Whole endo-lysosomal TPC2 current activated by LyNa-VAs, mean equal to 4.2

Record NC(=O)N1c2ccccc2C=Cc2ccccc21 [Carbamazepine] . Reported Whole endo-lysosomal TPC2 current activated by LyNa-VAs, mean: 5.1

Entry CNCCC=C1c2ccccc2CCc2ccccc21 [LyNa-VA1.5/nortriptyline] , Whole endo-lysosomal TPC2 current activated by LyNa-VAs, mean reported as 1916.0

Form field Whole endo-lysosomal TPC2 current activated by LyNa-VAs, mean, entry CN(C)CCCN1c2ccccc2CCc2ccccc21 [LyNa-VA1.3/imipramine] : 433.3

Recorded Whole endo-lysosomal TPC2 current activated by LyNa-VAs, mean (compound CN(C)CCCN1c2ccccc2Sc2ccc(Cl)cc21 [LyNa-VA2.1/chlorpromazine] ): 1100.5

====

Molecular target: PI(3,5)P2-insensitive mutant TPC2 channel (K204A) (Homo sapiens, UniProt Q8NHX9, K204A)
Construct: expressed in transfected cells; host or cells: HEK293
Sequence (Q8NHX9 whole entry K204A): as the sequence (Q8NHX9 whole entry) above, with K204A counted along it
Assay: Whole-endolysosome recordings of ITPC2-K204A
Format: biochemical
Settings: K204A -pip2; MEAN (Fig. 3D)
measure name: EC50
# output: numeric value plus its unit

# EC50 of CN(C)CCCN1c2ccccc2CCc2ccc(Cl)cc21 = 59.7 µM

====

Record form. Attribute: ITPC2. Fill in for each entry.
Molecular target: hTPC2 (Homo sapiens)
Construct: expressed in transfected cells; host or cells: Cos1 and HEK293
Assay: Whole-endolysosome recordings of ITPC2
Format: biochemical
Conditions: whole endolysosome recordings with 100 µM of LyNa-VAs at −120 mV
The figure you give is taken to be in pA; do not add the unit.

Noted for CN(C)CCCN1c2ccccc2Sc2ccc(C(F)(F)F)cc21 : its ITPC2 reads 984

Form field ITPC2, entry CN(C)CCC=C1c2ccccc2CCc2ccccc21 : 876

# ITPC2 (molecule: CN(C)CCCN1c2ccccc2CCc2ccc(Cl)cc21 ) is 945

Input CNCCC=C1c2ccccc2CCc2ccccc21 . Output ITPC2: 1916
